- System: E. coli TESEC Mtb DapB
- assaySummary: growth (OD600 after 10 h); higher = more growth (less inhibition)
- experimentalContext: arabinose induction (level): High; compound 0.1 mM; raw OD600 reference: median of DMSO wells […], cell-free background 0.041
Binary classification by growth, with 0.2 as an inclusive lower bound for true (1); all other cases are false (0).

Consider the following illustrative entries.
compound: CN(C)c1nc(N(C)C)nc(N(C)C)n1
category: true (1)
//
compound: N=C(NCCCCCCNC(=N)NC(=N)Nc1ccc(Cl)cc1)NC(=N)Nc1ccc(Cl)cc1
category: false (0)
//
compound: Brc1c(NC2=NCCN2)ccc2nccnc12 [Brimondine L-Tartrate]
category: false (0)

Input line: Could you please find out whether CC1(C)O[C@@H]2C[C@H]3[C@@H]4C[C@H](F)C5=CC(=O)C=C[C@]5(C)[C@H]4[C@@H](O)C[C@]3(C)[C@]2(C(=O)CO)O1 [Flunisolide] has growth that meets 0.2 or exceeds it?
Output line: true (1)

Input line: Try this compound too: CC(=O)Nc1c(I)c(C(=O)N[C@H]2C(O)O[C@H](CO)[C@@H](O)[C@@H]2O)c(I)c(N(C)C(C)=O)c1I (stereo partly drawn) [Metrizamide]
Output line: true (1)

Input line: What do you get for CC(C(=O)O)c1cccc(C(=O)c2ccccc2)c1 (stereo not drawn) ?
Output line: false (0)

Input line: And for "CC1(C)S[C@@H]2[C@H](NC(=O)[C@H](N)c3ccc(O)cc3)C(=O)N2[C@H]1C(=O)O" ?
Output line: true (1)

====

- System: E. coli TESEC Mtb Alr
- assaySummary: growth (OD600 after 10 h); higher = more growth (less inhibition)
- experimentalContext: arabinose 10000000 nM; compound 0.1 mM; raw OD600 reference: median of DMSO wells […], cell-free background 0.052
Structures can show the parent of a compound that is named as a salt.
measure: growth

compound: C[C@]12CC[C@@H]3c4ccc(O)cc4CC[C@H]3[C@@H]1C[C@@H](O)[C@@H]2O
growth: 0.258

Provide reported growth for each item, in the same order as listed.
1. CN1CCN(C(c2ccccc2)c2ccccc2)CC1 [Cyclizine hydrochloride]
2. Cc1c(NC(C)C)c(=O)n(-c2ccccc2)n1C [Isopyrin hydrochloride]
3. CN(Cc1ccc(C(C)(C)C)cc1)Cc1cccc2ccccc12 [Butenafine Hydrochloride]
4. CC1Cc2ccccc2N1NC(=O)c1ccc(Cl)c(S(N)(=O)=O)c1 (stereo not drawn) [Indapamide]
5. COc1cccc2c1C(=O)c1c(O)c3c(c(O)c1C2=O)C[C@@](O)(C(=O)CO)C[C@@H]3O[C@H]1C[C@H](N)[C@@H](O)[C@H](C)O1 [Epirubicin hydrochloride]
6. C1CCC(C(CC2CCCCN2)C2CCCCC2)CC1 (stereo not drawn) [Perhexiline maleate]
7. CCC(=O)O[C@@H](O[P@](=O)(CCCCc1ccccc1)CC(=O)N1C[C@H](C2CCCCC2)C[C@H]1C(=O)O)C(C)C

Output line:
1: 0.325; 2: 0.351; 3: 0.11; 4: 0.336; 5: 0.0582; 6: 0.0522; 7: 0.0696

Please report growth for every entry that follows.
1. CCN(CC)CCOc1ccc(C(=C(Cl)c2ccccc2)c2ccccc2)cc1 [Clomiphene citrate (Z,E)]
2. CN1CCC(=C2c3ccccc3Sc3ccccc32)CC1 [Pimethixene maleate]
3. CNCCc1ccccn1 [Betahistine mesylate]
4. COc1cccc(N(C)C(=S)Oc2ccc3c(c2)CCCC3)n1 [Liranaftate]

Output line:
0.0856
0.0659
0.319
0.127

Give me growth for each of these compounds, listed below.
1. CCN1CCCC1CNC(=O)c1cc(S(N)(=O)=O)ccc1OC (stereo not drawn) [Sulpiride]
2. CN(C/C=C/C#CC(C)(C)C)Cc1cccc2ccccc12
3. COC(=O)C1=C(C)NC(C)=C(C(=O)OCC(C)C)C1c1ccccc1[N+](=O)[O-] (stereo not drawn)
4. NS(=O)(=O)c1cc2c(cc1Cl)N=CNS2(=O)=O [Chlorothiazide]
5. OCCN1CCN(CC/C=C2/c3ccccc3Sc3ccc(Cl)cc32)CC1 [Zuclopenthixol dihydrochloride]

Output line:
0.35
0.0574
0.223
0.354
0.0523

Input line: State the recorded growth for this entry: "c1ccc2c(c1)CCCc1cc(NCCN3CCOCC3)nnc1-2"
Output line: 0.328

====

- Tested on: E. coli TESEC Mtb Alr
- assaySummary: growth (OD600 after 10 h); higher = more growth (less inhibition)
- experimentalContext: arabinose 1000 nM; compound 0.1 mM; raw OD600 reference: median of DMSO wells 0.294, cell-free background 0.041
Counter-ions that a name gives are not always drawn.
Would you kindly list growth for each of these compounds?
Answers are plain numbers.

Here is how some compounds turned out for growth.
compound: O=C(Nc1ccc([N+](=O)[O-])cc1Cl)c1cc(Cl)ccc1O [Niclosamide]
subjectOfTest: E. coli TESEC Mtb Alr
measure: growth
assayValue: 0.0406
//
compound: CC=C(C)C(=O)OC1C(OC(C)=O)C2(CO)C(O)CC3(C)C(=CCC4C5(C)CCC(OC6OC(C(=O)O)C(OC7OC(CO)C(O)C(O)C7O)C(O)C6OC6OC(CO)C(O)C(O)C6O)C(C)(CO)C5CCC43C)C2CC1(C)C (configuration not stated)
subjectOfTest: E. coli TESEC Mtb Alr
measure: growth
assayValue: 0.333
//
compound: NC[C@@H]1O[C@@H](O[C@H]2[C@H](O)[C@@H](O[C@H]3O[C@H](CO)[C@@H](O)[C@H](N)[C@H]3O)[C@H](N)C[C@@H]2N)[C@@H](O)[C@H](O)[C@H]1O [Kanamycin A sulfate]
subjectOfTest: E. coli TESEC Mtb Alr
measure: growth
assayValue: 0.302
//
compound: CC(=O)CC(c1ccc([N+](=O)[O-])cc1)c1c(O)c2ccccc2oc1=O (configuration not stated)
subjectOfTest: E. coli TESEC Mtb Alr
measure: growth
assayValue: 0.298
//
compound: Cc1oncc1C(=O)Nc1ccc(C(F)(F)F)cc1 [Leflunomide]
subjectOfTest: E. coli TESEC Mtb Alr
measure: growth
assayValue: 0.149

Provide reported growth for each item, in the same order as listed.
1. CC(=O)c1ccc(S(=O)(=O)NC(=O)NC2CCCCC2)cc1 [Acetohexamide]
2. Cc1cc(N)c2ccccc2[n+]1CCCCCCCCCC[n+]1c(C)cc(N)c2ccccc21 [Dequalinium dichloride]

Output line:
1: 0.284; 2: 0.048

====

Please provide measured growth for the entries that follow.
- Test system: E. coli TESEC Mtb Alr
- assaySummary: growth (OD600 after 10 h); higher = more growth (less inhibition)
- experimentalContext: arabinose 100 nM; compound 0.1 mM; raw OD600 reference: median of DMSO wells 0.413, cell-free background 0.052
Counter-ions that a name gives are not always drawn.
Answers are plain numbers.

For each of the compounds below, note its growth.
1. C[C@@H](O)[C@H]1C(=O)N2C(C(=O)O)=C(S[C@@H]3CN[C@H](C(=O)N(C)C)C3)[C@H](C)[C@H]12
2. CS(=O)(=O)c1ccc(C2=C(c3ccccc3)C(=O)OC2)cc1

Output line:
0.0456
0.409

Quick batch: growth for everything below.
1. N#CC(c1ccc(Cl)cc1)c1c(Cl)cc(-n2ncc(=O)[nH]c2=O)cc1Cl (configuration not stated)
2. O=c1[nH]cnc2c1ncn2[C@H]1CC[C@@H](CO)O1
3. CCCCNC(=O)NS(=O)(=O)c1ccc(C)cc1 [Tolbutamide]
4. COc1cc(C(=O)NCc2ccc(OCCN(C)C)cc2)cc(OC)c1OC [Trimethobenzamide hydrochloride]
5. COc1ccccc1O
6. CCN1CCN(c2cc3c(cc2F)c(=O)c(C(=O)O)cn3C2CC2)CC1
7. COC(=O)Nc1nc2cc(Sc3ccccc3)ccc2[nH]1
8. CCCN(CCC)CCc1cccc2c1CC(=O)N2 [Ropinirole HCl]

Output line:
[0.0632, 0.425, 0.409, 0.412, 0.407, 0.0539, 0.421, 0.408]

Consider the following items and state reported growth for each.
1. NC[C@H]1O[C@H](O[C@H]2[C@H](O[C@@H]3O[C@H](CO)[C@@H](O)[C@H]3O)[C@@H](O)[C@H](N)C[C@@H]2N)[C@H](N)[C@@H](O)[C@@H]1O [Ribostamycin sulfate salt]
2. C1N2CN3CN1CN(C2)C3

Output line:
1. 0.42
2. 0.41

Need growth for each of these compounds.
1. C=C1/C(=C\C=C2/CCC[C@]3(C)[C@@H]([C@H](C)CCCC(C)C)CC[C@@H]23)C[C@@H](O)C[C@@H]1O
2. NCCC[C@H](N)CC(=O)N[C@H]1CNC(=O)[C@H]([C@H]2C[C@H](O)NC(N)=N2)NC(=O)/C(=C/NC(N)=O)NC(=O)[C@H](CO)NC(=O)[C@H](CO)NC1=O [Viomycin sulfate]
3. CC[C@H](C)[C@H]1O[C@]2(CC[C@@H]1C)C[C@@H]1C[C@@H](CC=C(C)C(O[C@H]3C[C@H](OC)[C@@H](O[C@H]4C[C@H](OC)[C@@H](O)[C@H](C)O4)[C@H](C)O3)[C@@H](C)C=CC=C3CO[C@@H]4[C@H](O)C(C)=C[C@@H](C(=O)O1)[C@]34O)O2 (some centres not stated)
4. O=C1CN(/N=C/c2ccc(-c3ccc([N+](=O)[O-])cc3)o2)C(=O)N1 [Dantrolene sodium salt]
5. C=CCOC(Cn1ccnc1)c1ccc(Cl)cc1Cl (configuration not stated)
6. NCc1ccccc1CC(=O)N[C@@H]1C(=O)N2C(C(=O)O)=C(CSc3nnnn3CC(=O)O)CS[C@H]12 [Ceforanide]
7. CCOC(=O)[C@H](CCc1ccccc1)N[C@@H](C)C(=O)N1CCC[C@H]1C(=O)O [Enalapril maleate]

Output line:
0.421
0.226
0.473
0.319
0.193
0.108
0.412

Provenance of the data: the supplement of paper PMC9262897
